Overview of reported Ret across a group of compounds:
species on record: Rattus norvegicus; assay: Open TG-GATES - Regimen: Single; assay type: toxicity, organism-based, Sprague-Dawley; set-up: regimen Single, gender Male, age 6 weeks; details: in vivo, po, 0 mg/kg, 3 h, tissue Blood, route gavage, dose level Control

{"compound": "NC(N)=Nc1nc(CSCCC(N)=NS(N)(=O)=O)cs1", "Ret, %": 8.2}
{"compound": "CC1=C(/C=C/C(C)=C/C=C/C(C)=C/CO)C(C)(C)CCC1", "Ret, %": 8.9}
{"compound": "Cc1ccc(C)c(OCCCC(C)(C)C(=O)O)c1", "Ret, %": 8}
{"compound": "COc1cc2c(c(OC)c1OC)-c1ccc(OC)c(=O)cc1[C@@H](NC(C)=O)CC2", "Ret, %": 10.3}
{"compound": "CN(C)CCCN1c2ccccc2CCc2ccc(Cl)cc21", "Ret, %": 8.2}
{"compound": "COc1ccc2[nH]c([S+]([O-])Cc3ncc(C)c(OC)c3C)nc2c1 (stereo not given)", "Ret, %": 7.2}
{"compound": "CCCNC(=O)NS(=O)(=O)c1ccc(Cl)cc1 [CHLORPROPAMIDE]", "Ret, %": 8.9}
{"compound": "CCOc1ccc(NC(=O)CC(C)O)cc1 (stereo not given)", "Ret, %": 8.7}
{"compound": "CC(C)OC(=O)C(C)(C)Oc1ccc(C(=O)c2ccc(Cl)cc2)cc1 [FENOFIBRATE]", "Ret, %": 9}
{"compound": "O=C(CCCN1CCC(O)(c2ccc(Cl)cc2)CC1)c1ccc(F)cc1", "Ret, %": 8.7}
